Hey, just so you know, these numbers are from PubChem BioAssay (NCI).

- System: COLO 205 colon
- assay: NCI-60 one-dose screen, 48 h (100 = growth as untreated, 0 = no growth, -100 = all killed)
- experimental.conditions: 10 µM unless noted
The panel holds about 83,000 compounds, 20% with a hit somewhere; the sample as a whole holds those more often.
Output criterion met for growth not less than 70%; output criterion not met otherwise.

compound: COc1ccc(-c2oc(=O)ccc2-c2cc(OC)c(OC)c(OC)c2)cc1O
discrete.label: criterion not met
--
compound: O=C(Nc1ccccc1)c1sc(-c2ccccc2)cc1O
discrete.label: criterion met
--
compound: Cc1nn(-c2ccccc2)c(/N=C/N(C)C)c1/C=C/C(=O)c1ccc(Cl)cc1
discrete.label: criterion met
--
compound: O=C(CCCCNC(=O)c1cc(=O)c(O)co1)Nc1ccccc1
discrete.label: criterion not met
--
compound: COc1ccc(Cn2cc(C(=O)N=Nc3c(O)[nH]c4c(Cl)cccc34)nn2)cc1
discrete.label: criterion met
--
compound: CCOC(=O)n1cc(-c2nonc2-c2cn(C)c3ccccc23)c2ccccc21
discrete.label: criterion not met
--
compound: CCOC(=O)NN1CC(O)=C(c2nc(-c3ccc(Br)cc3)cs2)C1=N
discrete.label: criterion met
--
compound: O=C1/C(=C/c2ccccc2)CN(C(=O)c2cccnc2)C/C1=C\c1ccccc1
discrete.label: criterion not met
--
compound: CNC(=O)c1c(NC(=O)c2ccc(C(C)(C)C)cc2)sc2c(CN(C)C)c(O)ccc12
discrete.label: criterion not met
--
compound: O=c1nc(Nc2nc3ccccc3s2)[nH]c(=O)c2ccccc12
discrete.label: criterion met
--
compound: C=CC(=O)NCCOc1cccc(Nc2cc(NCCCNC(=O)C3CCC3)c(Br)cn2)c1
discrete.label: criterion not met
--
compound: O=C(c1ccc(Cl)cc1Cl)N1c2ccccc2Sc2ccccc21
discrete.label: criterion not met
--
compound: COC(=O)C1=Nc2ccc(F)cc2/C1=C\c1sc(Nc2ccc(O)cc2)nc1O
discrete.label: criterion met
--
compound: CCN1C(=O)N(CC)C2C1NN=C1SCC(=O)N12 (stereo unspecified)
discrete.label: criterion not met
--
compound: Cc1ccc2[nH]c(-c3ccc(S(C)(=O)=O)cc3)c(/C=N/N=C(N)N)c2c1
discrete.label: criterion not met
--
compound: Cc1[nH]c(/C=C/C(=O)c2ccc(C(F)(F)F)c(F)c2)c(C)c1C(=O)NCC(C)C
discrete.label: criterion met
--
compound: O=C1Nc2ccc(F)cc2/C1=C\c1nc(-c2ccccc2F)n2ccccc12
discrete.label: criterion met
--
compound: NC(CSC(c1ccccc1)(c1ccccc1)c1ccc2c(c1)OCO2)C(=O)O (stereo unspecified)
discrete.label: criterion not met
--
compound: CC1=NN(c2ccc(Cl)cc2)CC1(C)N=O (stereo unspecified)
discrete.label: criterion not met
--
compound: O=C1/C(=C/c2ccc(Br)cc2)COc2ccc(O)c(O)c21
discrete.label: criterion not met
--
compound: N=c1c2c(=N)n3c(nc2nc2n1-c1ccccc1Sc1ccccc1-2)sc1cc(Cl)ccc13
discrete.label: criterion not met
